system: JAK1 and JAK3 kinases; experiment: Ramos B-cell line stimulated with IL-4, CD23 upregulation (FACS); type: cell-based, human; settings: Ramos B cells, IL-4 50 units/mL, 20-24 hours, CD23 staining; read-out: Example 3 IC50
pIC50: −log10 of the molar value.
Listed here: items and their measured pIC50.
Readout Kind: pIC50

>>> numeric_readout("C#CCOc1ccc(Nc2nc(Nc3ccc(C)c(S(=O)(=O)NC(=O)CC)c3)ncc2F)cc1 [VII]")
7.66
>>> numeric_readout("C#CCOc1ccc(Nc2nc(Nc3ccc(C)c(S(=O)(=O)NC(=O)CC)c3)ncc2F)cc1 [VI]")
6.98

----------
test system: primary human T-cells; experiment: Primary human T-cell proliferation assay stimulated with IL-2 (CellTiter-Glo); format: cell-based; settings: Homo sapiens, T-cell, 72 h, read-out: Example 4 IC50
Where a name gives a salt, the structure may show the parent alone.
Readout Kind: IC50 (µM)

>>> numeric_readout("C#CCOc1ccc(Nc2nc(Nc3ccc(C)c(S(=O)(=O)NC(=O)CC)c3)ncc2F)cc1 [IV, Potassium Salt]")
5.56

----------
target: JAK3 (Homo sapiens); construct: endogenous in cells; experiment: Human cell based assay against JAK3; conditions: human cell based assays; read-out: half maximal effective concentration (EC50) against JAK3
Sequence (P52333 whole entry): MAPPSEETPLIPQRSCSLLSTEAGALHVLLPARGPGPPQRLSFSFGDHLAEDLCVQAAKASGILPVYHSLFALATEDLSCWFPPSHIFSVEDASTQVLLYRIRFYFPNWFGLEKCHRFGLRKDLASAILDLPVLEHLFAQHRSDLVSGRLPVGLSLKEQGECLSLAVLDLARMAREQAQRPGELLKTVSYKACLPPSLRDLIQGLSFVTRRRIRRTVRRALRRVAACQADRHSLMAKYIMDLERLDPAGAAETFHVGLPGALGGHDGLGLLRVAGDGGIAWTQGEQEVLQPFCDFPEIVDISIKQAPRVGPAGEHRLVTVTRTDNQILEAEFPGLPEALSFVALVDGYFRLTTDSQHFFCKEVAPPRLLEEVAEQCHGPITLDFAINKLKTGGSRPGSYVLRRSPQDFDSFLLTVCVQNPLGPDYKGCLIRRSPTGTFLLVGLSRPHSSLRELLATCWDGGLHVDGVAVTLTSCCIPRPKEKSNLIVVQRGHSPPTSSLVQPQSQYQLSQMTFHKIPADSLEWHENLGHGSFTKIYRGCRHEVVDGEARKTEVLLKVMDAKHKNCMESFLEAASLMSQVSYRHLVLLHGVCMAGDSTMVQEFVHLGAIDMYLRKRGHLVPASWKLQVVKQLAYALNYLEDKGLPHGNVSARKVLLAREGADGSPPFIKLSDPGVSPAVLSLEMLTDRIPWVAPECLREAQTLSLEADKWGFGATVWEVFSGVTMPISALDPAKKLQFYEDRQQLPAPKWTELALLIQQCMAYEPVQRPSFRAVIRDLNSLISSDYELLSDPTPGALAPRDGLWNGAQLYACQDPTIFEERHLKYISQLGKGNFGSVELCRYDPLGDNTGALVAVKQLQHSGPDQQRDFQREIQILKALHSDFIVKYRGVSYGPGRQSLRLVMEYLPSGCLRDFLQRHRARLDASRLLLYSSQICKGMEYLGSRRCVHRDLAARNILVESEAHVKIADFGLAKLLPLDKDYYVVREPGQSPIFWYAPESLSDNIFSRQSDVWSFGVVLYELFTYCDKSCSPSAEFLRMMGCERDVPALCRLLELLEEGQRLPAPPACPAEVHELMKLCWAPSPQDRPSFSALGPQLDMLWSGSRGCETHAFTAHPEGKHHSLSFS
Readout Kind: EC50

>>> result("C#CCOc1ccc(Nc2nc(Nc3ccc(C)c(S(N)(=O)=O)c3)ncc2F)cc1 [Compound I]")
"~180 nM"
